ASSAYED_SYSTEM: T1, HuCD3E (Homo sapiens, UniProt P07766 23-126, limits assumed)
T1 construct: Recombinant analyte in SPR and antigen in ELISA; also called human CD3; human CD3 epsilon
T1 sequence (P07766 23-126 limits assumed): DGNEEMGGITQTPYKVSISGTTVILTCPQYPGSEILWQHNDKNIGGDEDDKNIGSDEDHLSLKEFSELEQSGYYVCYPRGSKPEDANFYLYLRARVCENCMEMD
PROTOCOL_DETAILS: SPR, Biacore 8K; CD3 Affinity column: Med; upper end of the range
ENDPOINT_LABEL: Kd

1) 32G4-V8-v5.3 (antibody, V domains shown) VH: EVQLVESGGGLVQPGGSLKLSCAASGFTFNTYAMNWVRQAPGKGLEWVARIRSKYNNYATYYADKVKDRFTISRDDSKNTAYLQMNSLKTEDTAVYYCVRHGNFGNSYVSWFAYWGQGTLVTVSS VL: QTVVTQEPSLTVSPGGTVTLTCRSSTGAVTTSNYANWVQQKPGQAFRGLIGGTNKRAPGVPARFSGSLLGGKAALTLSGVQPEDEAIYFCALWYSNLWVFGGGTKLTVL    ≤ 100 nM
2) 32G4-V8-v5.4 (antibody, V domains shown) VH: EVQLVESGGGLVQPGGSLKLSCAASGFTFNTYAMNWVRQAPGKGLEWVARIRSKYNNYATYYWDSVKDRFTISRDDSKNTAYLQMNSLKTEDTAVYYCVRHGNFGNSYVSWFAYWGQGTLVTVSS VL: QTVVTQEPSLTVSPGGTVTLTCRSSTGAVTTSNYANWVQQKPGQAFRGLIGGTNKRAPGVPARFSGSLLGGKAALTLSGVQPEDEAIYFCALWYSNLWVFGGGTKLTVL    ≤ 100 nM
3) 47D10-V7-v5.2 (antibody, V domains shown) VH: EVQLVESGGGLVQPGGSLKLSCAASGFTFNTYAMNWVRQAPGKGLEWVARIRSKYNNYATYKADSVKDRFTISRDDSKNTAYLQMNSLKTEDTAVYYCVRHGNFGNSYVSWFAYWGQGTLVTVSS VL: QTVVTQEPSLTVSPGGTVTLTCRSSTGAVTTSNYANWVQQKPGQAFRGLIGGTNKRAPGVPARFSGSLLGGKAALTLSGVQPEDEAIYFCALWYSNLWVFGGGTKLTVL    ≤ 100 nM
